- Test: Drug level in diet-induced obese rat plasma at 0.3 mg/kg, po measured after 24 hrs of last dose on day 13
- Type: ADME, organism-based
- Set-up: dose 0.3 mg/kg, route oral
- Stated conditions: read-out: Drug uptake
Measurement name: concentration at 24 h (nM)

[[record]]
given_smiles = "Cc1cc(C(=O)N[C@@H]2CC(C)(C)Oc3nc(-c4ccc(Cl)cc4Cl)c(-c4ccc(Cl)cc4)cc32)n[nH]1"
quantitative_result = 135


----------
- Test: Ratio of drug level in brain to plasma in diet-induced obese rat at 0.3 mg/kg, po measured after 18 hrs of last dose on day 13
- Type: ADME, organism-based
- Design: dose 0.3 mg/kg, route oral
- Stated conditions: brain and plasma, read-out: BPR
Measurement name: Kp at 18 h

[[record]]
given_smiles = "Cc1cc(C(=O)N[C@@H]2CC(C)(C)Oc3nc(-c4ccc(Cl)cc4Cl)c(-c4ccc(Cl)cc4)cc32)n[nH]1"
measurement_name = "Kp at 18 h"
quantitative_result = 0.63

